The reported measurements were obtained from paper PMC10213937.

# Tested on: CYP3A
# assay-summary: in vitro
# condition-description: rat, microsomes
recorded-metric: pIC50
One number for each entry, as −log10 of the molar value.

[ask] Recorded pIC50 of C[C@@H](c1ncncc1F)[C@](O)(Cn1cncn1)c1ccc(F)cc1F , please.
[reply] 4.30

====

# assay-summary: Pharmacokinetic interaction study in rats, Study II: VOR with or without ATO
# Format: in vivo
# condition-description: male, Sprague-Dawley, rat, plasma, po, 20 mg/kg, NS + VOR 20 mg/kg oral
# Excerpt: Considering the clinical dosage of each drug and the dose equivalence between rats and human subjects, the corresponding quantity of drug powder was taken and resuspended with normal saline to prepare the drug-containing administration solution before treatment. […] The analytes were quantified by selective reaction monitoring (SRM) that used heating electrospray ionization (H-ESI) in the positive ion mode. […]
recorded-metric: Cmax (ng/mL)
Answers are plain numbers, in ng/mL.

[ask] Suppose we examine the compound C[C@@H](c1ncncc1F)[C@](O)(Cn1cncn1)c1ccc(F)cc1F ; what Cmax value has been reported?
[reply] 829

====

# assay-summary: Pharmacokinetic interaction study in rats, Study II: VOR with or without ATO
# Type: in vivo
# condition-description: male, Sprague-Dawley, rat, plasma, po, 20 mg/kg, ATO 2 mg/kg + VOR 20 mg/kg oral, read-out: AUC0–24h
recorded-metric: AUC(0-t) (ng·h/mL)
Numbers only, in ng·h/mL.

[ask] For the molecule C[C@@H](c1ncncc1F)[C@](O)(Cn1cncn1)c1ccc(F)cc1F , what AUC(0-t) is on record?
[reply] 3250

====

# assay-summary: Pharmacokinetic interaction study in rats, Study II: VOR with or without ATO
# Type: in vivo
# condition-description: male, Sprague-Dawley, rat, plasma, po, 20 mg/kg, NS + VOR 20 mg/kg oral, read-out: MRT0-∞
recorded-metric: MRT inf (h)
Numbers only, in h.

[ask] Quick one: MRT inf of C[C@@H](c1ncncc1F)[C@](O)(Cn1cncn1)c1ccc(F)cc1F ?
[reply] 3.53

====

# assay-summary: Pharmacokinetic interaction study in rats, Study II: VOR with or without ATO
# Format: in vivo
# condition-description: male, Sprague-Dawley, rat, plasma, po, 20 mg/kg, ATO 2 mg/kg + VOR 20 mg/kg oral
recorded-metric: Tmax (min)
Numbers only, in min.

[ask] Record request: Tmax value, item C[C@@H](c1ncncc1F)[C@](O)(Cn1cncn1)c1ccc(F)cc1F
[reply] 55
